TESTED_ON: human ether-à-go-go-related gene (hERG) potassium channel (human, UniProt Q12809)
Sequence (Q12809 whole entry, looked up): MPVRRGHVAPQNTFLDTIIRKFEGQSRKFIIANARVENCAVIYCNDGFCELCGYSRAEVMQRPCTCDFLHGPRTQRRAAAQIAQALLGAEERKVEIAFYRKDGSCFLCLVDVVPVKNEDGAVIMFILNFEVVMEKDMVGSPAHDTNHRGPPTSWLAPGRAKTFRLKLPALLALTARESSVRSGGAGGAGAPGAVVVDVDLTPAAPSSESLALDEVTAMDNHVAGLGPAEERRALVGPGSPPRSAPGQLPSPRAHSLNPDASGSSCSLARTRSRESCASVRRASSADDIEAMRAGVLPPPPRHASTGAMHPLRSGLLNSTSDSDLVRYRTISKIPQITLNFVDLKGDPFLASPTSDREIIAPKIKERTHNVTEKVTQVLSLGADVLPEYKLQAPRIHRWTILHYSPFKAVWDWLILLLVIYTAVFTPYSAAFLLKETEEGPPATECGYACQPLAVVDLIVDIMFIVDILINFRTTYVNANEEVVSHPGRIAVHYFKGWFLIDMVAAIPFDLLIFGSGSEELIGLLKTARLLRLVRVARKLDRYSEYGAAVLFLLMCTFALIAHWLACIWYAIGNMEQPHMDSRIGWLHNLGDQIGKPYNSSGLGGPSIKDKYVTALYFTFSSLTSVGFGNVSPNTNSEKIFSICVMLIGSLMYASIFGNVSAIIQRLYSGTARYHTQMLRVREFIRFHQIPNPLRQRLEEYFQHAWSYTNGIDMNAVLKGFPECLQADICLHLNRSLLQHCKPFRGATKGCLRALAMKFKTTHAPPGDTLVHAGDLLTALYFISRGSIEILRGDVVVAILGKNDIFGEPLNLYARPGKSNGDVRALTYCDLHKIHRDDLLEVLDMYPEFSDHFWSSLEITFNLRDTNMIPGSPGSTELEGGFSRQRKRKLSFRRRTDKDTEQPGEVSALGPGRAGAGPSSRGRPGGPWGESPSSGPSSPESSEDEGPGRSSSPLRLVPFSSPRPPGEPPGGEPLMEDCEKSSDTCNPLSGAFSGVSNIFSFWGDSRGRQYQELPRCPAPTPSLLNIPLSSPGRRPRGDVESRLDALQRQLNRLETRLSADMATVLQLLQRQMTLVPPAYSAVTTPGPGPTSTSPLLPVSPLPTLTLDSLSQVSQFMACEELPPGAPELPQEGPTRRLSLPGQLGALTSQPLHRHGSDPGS
EXPERIMENT_NOTES: primary screen, population patch clamp on CHO cells stably expressing hERG; higher = less effect of the substance;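 note: peak tail current of the secondary pulse compared with the same well before compound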
The whole screen tested about 310,000 compounds, of which about 14,000 (4.5%) showed an effect of 50% or more. The effect is printed as a negative number. The sample as a whole holds a higher share of strong results than the screen did.
READOUT_LABEL: hERG current change (%, negative = inhibition) at 10uM (%)
Give the number; % is assumed, so skip it.

{"columns": ["MOLECULE", "VALUE_OBSERVED"],
 "data": [
  ["O=[N+]([O-])c1ccc(Oc2cnc3ccccc3n2)cc1", 7.44]
]}

Incoming: Request - read-out hERG current change (%, negative = inhibition) at 10uM | tested on human ether-à-go-go-related gene (hERG) potassium channel (human, UniProt Q12809) | molecule "CCN1CCN(Cc2ccc(OC)c(OCc3ccccc3)c2)CC1"
Outgoing: -41.9

Incoming: Request - read-out hERG current change (%, negative = inhibition) at 10uM | tested on human ether-à-go-go-related gene (hERG) potassium channel (human, UniProt Q12809) | molecule "CCn1c(=S)sc2c(=O)n(-c3ccccc3)c(SC)nc21"
Outgoing: -11.2

Incoming: Request - read-out hERG current change (%, negative = inhibition) at 10uM | tested on human ether-à-go-go-related gene (hERG) potassium channel (human, UniProt Q12809) | molecule "COc1ccc(C(=O)N2C(=S)NC(=O)/C2=C\c2ccc(C)cc2)cc1"
Outgoing: -2.42

Incoming: Request - read-out hERG current change (%, negative = inhibition) at 10uM | tested on human ether-à-go-go-related gene (hERG) potassium channel (human, UniProt Q12809) | molecule "COc1ccc(CN2CCN(CCCc3ccccc3)CC2)c(OC)c1"
Outgoing: -76.6

Incoming: Request - read-out hERG current change (%, negative = inhibition) at 10uM | tested on human ether-à-go-go-related gene (hERG) potassium channel (human, UniProt Q12809) | molecule "O=C1NC(=Nc2ccccc2)c2ccc([N+](=O)[O-])cc21"
Outgoing: 3.21

Incoming: Request - read-out hERG current change (%, negative = inhibition) at 10uM | tested on human ether-à-go-go-related gene (hERG) potassium channel (human, UniProt Q12809) | molecule "Fc1ccc2c(c1)nnn2C1CCN(Cc2c(Cl)cccc2Cl)CC1"
Outgoing: 7.11

Incoming: Request - read-out hERG current change (%, negative = inhibition) at 10uM | tested on human ether-à-go-go-related gene (hERG) potassium channel (human, UniProt Q12809) | molecule "O=C(CNC(=O)OCc1ccccc1)NC1CCCCCCC1"
Outgoing: -2.67

Incoming: Request - read-out hERG current change (%, negative = inhibition) at 10uM | tested on human ether-à-go-go-related gene (hERG) potassium channel (human, UniProt Q12809) | molecule "Cl.Fc1ccc2c(c1)nnn2C1CCN(Cc2nnnn2CCc2ccccc2)CC1"
Outgoing: -61.3
